test system: MiaPaca-2; assay: MTT cytotoxicity assay, MiaPaca-2; assay type: cell-based; conditions: Homo sapiens, MIA PaCa-2; MTT, 72 h; read-out: IC50 MiaPaca-2
Recorded measurements of IC50, one per entry

IC50 of C[C@@H]1O[C@@H](Oc2ccc(-c3oc4cc(O)cc(O)c4c(=O)c3O[C@@H]3O[C@@H](C)[C@H](O)[C@@H](O)[C@H]3O)cc2)[C@H](O)[C@H](O)[C@H]1O [Compound 5] on MiaPaca-2?
16.8 µM

// same read-out, input: CC(=O)OCC1OC(Oc2cc(O)ccc2CC(=O)O)C(OC(C)=O)C(OC(C)=O)C1OC(C)=O (stereo not drawn) [Compound 7]
10 µM

Now the same for C[C@@H]1O[C@@H](Oc2c(-c3ccc(O)cc3)oc3cc(O)cc(O)c3c2=O)[C@H](O)[C@H](O)[C@H]1O [Compound 3, kaempferol 3-O-α-L-rhamnopyranoside]
46.4 µM

Next record, please: CC(=O)OC1C(C)OC(Oc2c(-c3ccc(O)c(O)c3)oc3cc(O)cc(O)c3c2=O)C(OC(C)=O)C1OC(C)=O (stereo not drawn) [Compound 9]
17.4 µM

What about this compound? CC(=O)OCC1OC(Oc2cc(OC(C)=O)ccc2CC(=O)O)C(OC(C)=O)C(OC(C)=O)C1OC(C)=O (stereo not drawn) [Compound 8]
18.5 µM

API: the following record is the query input.
Request - read-out IC50 | tested on MiaPaca-2 | compound CC(=O)Oc1cc(O)c2c(=O)c(OC3OC(C)C(OC(C)=O)C(OC(C)=O)C3OC(C)=O)c(-c3ccc(O)c(O)c3)oc2c1 (stereo not drawn) [Compound 10]
64.9 µM

====

tested on: MiaPaca-2; experiment: MTT cytotoxicity assay, MiaPaca-2; type: cell-based; conditions: Homo sapiens, MIA PaCa-2; MTT, 72 h; read-out: IC50 MiaPaca-2
ASSAY_METRIC: pIC50
The value called pIC50 is obtained by taking minus log10 of the concentration in mol/L.

Reported pIC50 for C[C@@H]1O[C@@H](Oc2ccc(-c3oc4cc(O)cc(O)c4c(=O)c3O[C@@H]3O[C@@H](C)[C@H](O)[C@@H](O)[C@H]3O)cc2O)[C@H](O)[C@H](O)[C@H]1O [Compound 4, quercetin 3,4′-di-O-α-L-rhamnopyranoside] : what is it?
4.76

---
Entry under review: O=C(O)Cc1ccc(O)cc1OC1OC(CO)C(O)C(O)C1O (stereo not drawn) . Reported pIC50?
4.52

====

test system: HepG2; test: MTT cytotoxicity assay, HepG2; assay type: cell-based; conditions: Homo sapiens, HepG2; MTT, 72 h; read-out: IC50 HepG2
Each record here notes measured IC50.

Recorded IC50 for CC(=O)Oc1cc(O)c2c(=O)c(OC3OC(C)C(OC(C)=O)C(OC(C)=O)C3OC(C)=O)c(-c3ccc(O)c(O)c3)oc2c1 (stereo not drawn) , please?
64.9 µM

Query COc1cccc2c1C(=O)c1c(O)c3c(c(O)c1C2=O)C[C@@](O)(C(=O)CO)C[C@@H]3O[C@H]1C[C@H](N)[C@H](O)[C@H](C)O1 [Doxorubicin, reference compound] next
< 7e-05 µM

Then this molecule:
Fill in the blank: the reported IC50 of CC(=O)OCC1OC(Oc2cc(OC(C)=O)ccc2CC(=O)O)C(OC(C)=O)C(OC(C)=O)C1OC(C)=O (stereo not drawn) is ____.
40.2 µM

====

Measured pIC50, listed per entry.
test system: HepG2; test: MTT cytotoxicity assay, HepG2; type: cell-based; settings: Homo sapiens, HepG2; MTT, 72 h; read-out: IC50 HepG2
To interpret pIC50, take it as minus log10 of a concentration measured in moles per litre.

Worked set:
Entry CC(=O)OC1C(C)OC(Oc2c(-c3ccc(O)c(O)c3)oc3cc(O)cc(O)c3c2=O)C(OC(C)=O)C1OC(C)=O (stereo not drawn) : reported pIC50 = ?
4.65

Queued: O=C(O)Cc1ccc(O)cc1OC1OC(CO)C(O)C(O)C1O (stereo not drawn)
3.92

Entry C[C@@H]1O[C@@H](Oc2c(-c3ccc(O)cc3)oc3cc(O)cc(O)c3c2=O)[C@H](O)[C@H](O)[C@H]1O [Compound 3, kaempferol 3-O-α-L-rhamnopyranoside] please
4.63

Try C[C@@H]1O[C@@H](Oc2ccc(-c3oc4cc(O)cc(O)c4c(=O)c3O[C@@H]3O[C@@H](C)[C@H](O)[C@@H](O)[C@H]3O)cc2O)[C@H](O)[C@H](O)[C@H]1O [Compound 4, quercetin 3,4′-di-O-α-L-rhamnopyranoside] next.
4.76

Next molecule up: CC(=O)OCC1OC(Oc2cc(O)ccc2CC(=O)O)C(OC(C)=O)C(OC(C)=O)C1OC(C)=O (stereo not drawn)
4.43

Consider now this further molecule.
Returns the measured pIC50 for the input molecule. Input: C[C@@H]1O[C@@H](Oc2ccc(-c3oc4cc(O)cc(O)c4c(=O)c3O[C@@H]3O[C@@H](C)[C@H](O)[C@@H](O)[C@H]3O)cc2)[C@H](O)[C@H](O)[C@H]1O
4.77

====

test system: MCF-7; assay: MTT cytotoxicity assay, MCF-7; format: cell-based; conditions: Homo sapiens, MCF7, 72 h, read-out: IC50 MCF-7
ASSAY_METRIC: IC50 (µM)
Provide only the numeric value, understood in µM.

Entry C[C@@H]1O[C@@H](Oc2c(-c3ccc(O)c(O)c3)oc3cc(O)cc(O)c3c2=O)[C@H](O)[C@H](O)[C@H]1O [Compound 2, quercetin 3-O-α-L-rhamnopyranoside] : reported IC50 = ?
87.5

====

system: MCF-7; experiment: MTT cytotoxicity assay, MCF-7; type: cell-based; conditions: Homo sapiens, MCF7, 72 h, MTT, 72 h; read-out: IC50 MCF-7
pIC50 reference
Expect pIC50 as a plain number equal to -log10 of the molar concentration.

Can you look up the measured pIC50 of C[C@@H]1O[C@@H](Oc2ccc(-c3oc4cc(O)cc(O)c4c(=O)c3O[C@@H]3O[C@@H](C)[C@H](O)[C@@H](O)[C@H]3O)cc2O)[C@H](O)[C@H](O)[C@H]1O [Compound 4, quercetin 3,4′-di-O-α-L-rhamnopyranoside] for me?
4.76

Others:
Recorded pIC50 of CC(=O)OCC1OC(Oc2cc(O)ccc2CC(=O)O)C(OC(C)=O)C(OC(C)=O)C1OC(C)=O (centres unmarked) , please.
4.43

====

System: P. falciparum strain 3D7
Assay: P. falciparum 3D7 lactate dehydrogenase assay
Format: cell-based, Plasmodium falciparum
Conditions: strain 3D7, 72 h, LDH readout; read-out: IC50 against P. falciparum
Method: P. falciparum 3D7 lactate dehydrogenase assay: Parasites of the P. falciparum strain 3D7 were grown in fresh group 0 positive human erythrocytes, obtained from the Centro Regional de Transfusion Sanguınea-SAS (Granada, Spain). This assay was performed in duplicate for each compound using a sixteen (16) point dose response curve (½ serial dilutions) with concentrations starting from 50 μM until 1.5 nM to determine the IC50s of the compounds. […]
Each entry below carries its recorded pIC50.
Keep in mind that pIC50 stands for -log10 of concentration in molar terms.

Quick one: pIC50 for CC(=O)Oc1cc(O)c2c(=O)c(OC3OC(C)C(OC(C)=O)C(OC(C)=O)C3OC(C)=O)c(-c3ccc(O)c(O)c3)oc2c1 (centres unmarked) ?
5.17

Okay, next one:
Fill blank: measured pIC50 of the compound CC(=O)OC1C(C)OC(Oc2c(-c3ccc(O)c(O)c3)oc3cc(O)cc(O)c3c2=O)C(OC(C)=O)C1OC(C)=O (centres unmarked) is ____.
5.12

====

system: MCF-7; test: MTT cytotoxicity assay, MCF-7; format: cell-based; settings: Homo sapiens, MCF7, 72 h, MTT, 72 h; read-out: IC50 MCF-7
The entries below come with measured IC50 values attached.
Respond with the bare value in µM.

Below, each entry is followed by its recorded IC50 result.
Item C[C@@H]1O[C@@H](Oc2c(-c3ccc(O)cc3)oc3cc(O)cc(O)c3c2=O)[C@H](O)[C@H](O)[C@H]1O [Compound 3, kaempferol 3-O-α-L-rhamnopyranoside] has what recorded IC50?
46.4

Do the same for C[C@@H]1O[C@@H](Oc2ccc(-c3oc4cc(O)cc(O)c4c(=O)c3O[C@@H]3O[C@@H](C)[C@H](O)[C@@H](O)[C@H]3O)cc2)[C@H](O)[C@H](O)[C@H]1O [Compound 5] please
33.7

Try CC(=O)OCC1OC(Oc2cc(OC(C)=O)ccc2CC(=O)O)C(OC(C)=O)C(OC(C)=O)C1OC(C)=O (stereo not drawn) [Compound 8] next.
40.2

Field entry: O=C(O)Cc1ccc(O)cc1OC1OC(CO)C(O)C(O)C1O (stereo not drawn) [Compound 1]
42.7

Let's switch to this molecule now.
IC50 lookup needed for CC(=O)OC1C(C)OC(Oc2c(-c3ccc(O)c(O)c3)oc3cc(O)cc(O)c3c2=O)C(OC(C)=O)C1OC(C)=O (stereo not drawn) [Compound 9] , thanks.
10.8
